tested-system: T1, σ70, native, untagged (pLN12) (Escherichia coli, UniProt P00579 1-613)
T1 construct: range 1-613; also called native ?^70
test-description: Ni-NTA co-immobilization, SDS-PAGE
value-type: binding result

Worked cases, answers included:
His6-HMK-β′1-280 (pTA523) (enzyme, range 1-280) MKDLLKFLKAQTKTEEFDAIKIALASPDMIRSWSFGEVKKPETINYRTFKPERDGLFCARIFGPVKDYECLCGKYKRLKHRGVICEKCGVEVTQTKVRRERMGHIELASPTAHIWFLKSLPSRIGLLLDMPLRDIERVLYFESYVVIEGGMTNLERQQILTEEQYLDALEEFGDEFDAKMGAEAIQALLKSMDLEQECEQLREELNETNSETKRKKLTKRIKLLEAFVQSGNKPEWMILTVLPVLPPDLRPLVPLDGGRFATSDLNDLYRRVINRNNRLK : no binding
β′260-309 with C-terminal His6 (pTA546) (enzyme) FATSDLNDLYRRVINRNNRLKRLLDLAAPDIIVRNEKRMLQEAVDALLDNHHHHHH : binds
His6-HMK-β′1-300 (pTA524) (enzyme, range 1-300) MKDLLKFLKAQTKTEEFDAIKIALASPDMIRSWSFGEVKKPETINYRTFKPERDGLFCARIFGPVKDYECLCGKYKRLKHRGVICEKCGVEVTQTKVRRERMGHIELASPTAHIWFLKSLPSRIGLLLDMPLRDIERVLYFESYVVIEGGMTNLERQQILTEEQYLDALEEFGDEFDAKMGAEAIQALLKSMDLEQECEQLREELNETNSETKRKKLTKRIKLLEAFVQSGNKPEWMILTVLPVLPPDLRPLVPLDGGRFATSDLNDLYRRVINRNNRLKRLLDLAAPDIIVRNEKRMLQ : no binding
His6-tagged β′60-309 (pTA532) (enzyme) RIFGPVKDYECLCGKYKRLKHRGVICEKCGVEVTQTKVRRERMGHIELASPTAHIWFLKSLPSRIGLLLDMPLRDIERVLYFESYVVIEGGMTNLERQQILTEEQYLDALEEFGDEFDAKMGAEAIQALLKSMDLEQECEQLREELNETNSETKRKKLTKRIKLLEAFVQSGNKPEWMILTVLPVLPPDLRPLVPLDGGRFATSDLNDLYRRVINRNNRLKRLLDLAAPDIIVRNEKRMLQEAVDALLDN : binds
His6-tagged β′200-309 (pTA538) (enzyme) QLREELNETNSETKRKKLTKRIKLLEAFVQSGNKPEWMILTVLPVLPPDLRPLVPLDGGRFATSDLNDLYRRVINRNNRLKRLLDLAAPDIIVRNEKRMLQEAVDALLDN : binds

# get_value(readout='binding result', item= His6-HMK-β′1-309 (pTA525) (enzyme) MKDLLKFLKAQTKTEEFDAIKIALASPDMIRSWSFGEVKKPETINYRTFKPERDGLFCARIFGPVKDYECLCGKYKRLKHRGVICEKCGVEVTQTKVRRERMGHIELASPTAHIWFLKSLPSRIGLLLDMPLRDIERVLYFESYVVIEGGMTNLERQQILTEEQYLDALEEFGDEFDAKMGAEAIQALLKSMDLEQECEQLREELNETNSETKRKKLTKRIKLLEAFVQSGNKPEWMILTVLPVLPPDLRPLVPLDGGRFATSDLNDLYRRVINRNNRLKRLLDLAAPDIIVRNEKRMLQEAVDALLDN )
binds

Next: His6-tagged β′33-309 (pTA531) (enzyme) WSFGEVKKPETINYRTFKPERDGLFCARIFGPVKDYECLCGKYKRLKHRGVICEKCGVEVTQTKVRRERMGHIELASPTAHIWFLKSLPSRIGLLLDMPLRDIERVLYFESYVVIEGGMTNLERQQILTEEQYLDALEEFGDEFDAKMGAEAIQALLKSMDLEQECEQLREELNETNSETKRKKLTKRIKLLEAFVQSGNKPEWMILTVLPVLPPDLRPLVPLDGGRFATSDLNDLYRRVINRNNRLKRLLDLAAPDIIVRNEKRMLQEAVDALLDN
binds
